// reported solubility for each item listed
- Measurement notes: Aqueous solubility of the compound by HPLC method
- Format: physicochemical
- Measurement conditions: water

[
  {
    "Compound": "O=c1nc(N2CCN(CC3CCCCC3)CC2)sc2c([N+](=O)[O-])cc(C(F)(F)F)cc12 [MACOZINONE]",
    "solubility [µg/mL]": 9.07
  },
  {
    "Compound": "CC1COC2(CCN(c3nc(=O)c4cc(C(F)(F)F)cc([N+](=O)[O-])c4s3)CC2)O1 (racemic)",
    "solubility [µg/mL]": 0.94
  },
  {
    "Compound": "O=C(C1CC1)N1CCN(c2nc(=O)c3cc(C(F)(F)F)cc([N+](=O)[O-])c3s2)CC1",
    "solubility [µg/mL]": 52.9
  },
  {
    "Compound": "COc1ccc(CC(=O)N2CCN(c3nc(=O)c4cc(C(F)(F)F)cc([N+](=O)[O-])c4s3)CC2)cc1",
    "solubility [µg/mL]": 2.72
  }
]
